Parameter IC50: see the listing below.
target entity: human SGLT2 (Homo sapiens, UniProt P31639)
Sequence (P31639 whole entry): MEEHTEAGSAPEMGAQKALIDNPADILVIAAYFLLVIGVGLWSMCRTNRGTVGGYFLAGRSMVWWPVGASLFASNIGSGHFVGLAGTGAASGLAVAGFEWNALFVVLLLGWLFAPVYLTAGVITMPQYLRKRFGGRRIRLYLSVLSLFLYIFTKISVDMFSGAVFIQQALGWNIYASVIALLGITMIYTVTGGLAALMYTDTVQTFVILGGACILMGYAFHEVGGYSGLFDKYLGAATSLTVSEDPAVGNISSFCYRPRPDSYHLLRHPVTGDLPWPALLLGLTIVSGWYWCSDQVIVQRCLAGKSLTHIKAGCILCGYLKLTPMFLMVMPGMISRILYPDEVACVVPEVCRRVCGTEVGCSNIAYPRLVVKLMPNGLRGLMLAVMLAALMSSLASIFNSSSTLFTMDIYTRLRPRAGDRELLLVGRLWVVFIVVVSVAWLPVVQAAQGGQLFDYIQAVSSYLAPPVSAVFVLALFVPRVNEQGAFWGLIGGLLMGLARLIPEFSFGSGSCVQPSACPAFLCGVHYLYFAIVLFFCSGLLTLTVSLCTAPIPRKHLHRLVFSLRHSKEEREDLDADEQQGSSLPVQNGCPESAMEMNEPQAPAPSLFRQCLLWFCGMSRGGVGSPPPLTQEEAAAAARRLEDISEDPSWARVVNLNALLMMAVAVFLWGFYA
assay procedure: Assay for inhibitory effects on human SGLT2 activity (uptake of methyl-α-D-glucopyranoside in CS2-5E cells)
assay setup: CHO-K1 cells stably expressing human SGLT2 (CS2-5E); 50% inhibition of uptake of 1 mM 14C-labeled/non-labeled methyl-α-D-glucopyranoside, 37° C., 1 hour

| compound | IC50 |
| --- | --- |
| COc1cc2occ(CCc3ccccc3)c2cc1[C@@H]1O[C@H](CO)[C@@H](O)[C@H](O)[C@H]1O [Example 2] | 57 nM |

Turning now to a further compound:
Which IC50 value belongs to CCc1ccc(Cc2csc3ccc([C@@H]4O[C@H](CO)[C@@H](O)[C@H](O)[C@H]4O)cc23)cc1 [Example 9] ?
1.4 nM

The measured values listed here are drawn from patent US8058245B2.
